Reference for the values: patent US20160368965A1

Target Entity: T1, HLA-A*02:01 (human)
T1 construct: the tested peptide takes its place; also called peptide-receptive MHC molecules; MHC class I
Assay Procedure: UV-ligand exchange, anti-β2m ELISA; grade of peptide exchange yield
Here the recorded peptide exchange yield is given for each entry.

In the examples that follow, each entry is paired with its recorded peptide exchange yield.
>  <Binder>
LLWDPSTGKQV [LLWDPSTGKQV (SEQ ID NO: 53)]

>  <peptide exchange yield>
50 to 75%

$$$$
>  <Binder>
RLFPGSSFL [RLFPGSSFL (SEQ ID NO: 77)]

>  <peptide exchange yield>
≥ 75%

$$$$
>  <Binder>
VVYDDSTGLIRL [VVYDDSTGLIRL (SEQ ID NO: 81)]

>  <peptide exchange yield>
50 to 75%

$$$$
>  <Binder>
VMASPGGLSAV [VMASPGGLSAV (SEQ ID NO: 72)]

>  <peptide exchange yield>
50 to 75%

$$$$

Now for another entry.
Would you mind telling me what peptide exchange yield value was observed for TMVEHNYYV [TMVEHNYYV (SEQ ID NO: 46)] ?
50 to 75%
